From: patent US10780084B2

- test_target: recombinant uPAR (Homo sapiens, UniProt Q03405)
- Sequence (Q03405 23-305): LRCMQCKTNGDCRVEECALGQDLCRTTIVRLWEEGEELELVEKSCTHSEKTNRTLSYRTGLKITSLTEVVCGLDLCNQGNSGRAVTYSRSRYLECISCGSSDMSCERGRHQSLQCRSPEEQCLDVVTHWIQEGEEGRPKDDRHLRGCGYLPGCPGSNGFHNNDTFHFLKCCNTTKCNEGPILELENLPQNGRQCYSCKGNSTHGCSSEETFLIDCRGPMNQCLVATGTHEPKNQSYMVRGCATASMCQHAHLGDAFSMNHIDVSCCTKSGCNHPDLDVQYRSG
- assay_procedure: Competitive ELISA uPAR binding assay (displacement of uPAR from immobilized urokinase)
- recorded_conditions: ELISA assay, competition with urokinase for recombinant uPAR
Entries and their measured Ki follow.
Just the number please, in µM, no unit attached.

Here's what some known entries look like.
structure_notation	Ki [µM]
CCOC(=O)c1cn(C)nc1Nc1cc(N2CCC(C(=O)NCCCOCCOCCOCCCNc3ccc([N+](=O)[O-])cc3[N+](=O)[O-])CC2)c2noc3c2c1C(=O)c1ccccc1-3	1.14
COc1ccc(Nc2cc(N3CCC(C(=O)NCCCOCCOCCOCCCNc4ccc([N+](=O)[O-])cc4[N+](=O)[O-])CC3)c3noc4c3c2C(=O)c2ccccc2-4)c(S(=O)(=O)O)c1	0.011

We now examine a further compound.
Tell me the measured Ki of O=C1c2ccccc2-c2onc3c(N4CCC(C(=O)NCCCOCCOCCOCCCNc5ccc([N+](=O)[O-])cc5[N+](=O)[O-])CC4)cc(Nc4ccc(S(=O)(=O)O)cc4)c1c23 , please.
0.0484
